assay: recombinant barcode read abundance after kanamycin selection (control-corrected) (log10(CPM+1)); higher = more efficient recombination; sequences stand for … in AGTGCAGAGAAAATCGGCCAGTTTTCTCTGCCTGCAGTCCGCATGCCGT…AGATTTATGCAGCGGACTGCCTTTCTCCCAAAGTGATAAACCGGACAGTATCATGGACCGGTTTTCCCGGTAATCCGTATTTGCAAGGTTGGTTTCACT; site = the 11-nt target;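 further: IS621 recombinase and bridge RNA in Escherichia coli cells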
Readout Name: recombinant barcode read abundance (log10)

- GTGACCGCTTGGGTTCTAACCTGTTGCCT (site GTGACCGCTAG): 1.89
- GATACTGCTTGGGTTCTAACCTGTTGCCT (site GACACTGCTAG): 0.434
- TCACTCTCTTGGGTTCTAACCTGTTGCCT (site TCACTCTCTAG): 1.22
- GATTCTCCTTGGGTTCTAACCTGTTGCTT (site GATTCTCCTAC): 0.0499
- TAGAACACTTGGGTTCTAACCTGTTGCTC (site TAGAACACTAA): 0.421
- GAGCGCTCTTGGGTTCTAACCTGTTGCTC (site GAGCGCTCTAA): 0.525
- GAGTGTACTTGGGTTCTAACCTGTTGCAT (site GAGAGTACTAT): 0.208
- CATTACTCTTGGGTTCTAACCTGTTGCTT (site CATTACTCTAA): 0.622
- AGCAGCCCTTGGGTTCTAACCTGTTGCAG (site GTTCCAGCTAG): 0.0963
- GGTGAGCCTTGGGTTCTAACCTGTTGCGT (site GGTGAGCCTAC): 2.68
